Each entry below carries its measured pIC50, system: Neprilysin (Homo sapiens).
Sequence (P08473 whole entry): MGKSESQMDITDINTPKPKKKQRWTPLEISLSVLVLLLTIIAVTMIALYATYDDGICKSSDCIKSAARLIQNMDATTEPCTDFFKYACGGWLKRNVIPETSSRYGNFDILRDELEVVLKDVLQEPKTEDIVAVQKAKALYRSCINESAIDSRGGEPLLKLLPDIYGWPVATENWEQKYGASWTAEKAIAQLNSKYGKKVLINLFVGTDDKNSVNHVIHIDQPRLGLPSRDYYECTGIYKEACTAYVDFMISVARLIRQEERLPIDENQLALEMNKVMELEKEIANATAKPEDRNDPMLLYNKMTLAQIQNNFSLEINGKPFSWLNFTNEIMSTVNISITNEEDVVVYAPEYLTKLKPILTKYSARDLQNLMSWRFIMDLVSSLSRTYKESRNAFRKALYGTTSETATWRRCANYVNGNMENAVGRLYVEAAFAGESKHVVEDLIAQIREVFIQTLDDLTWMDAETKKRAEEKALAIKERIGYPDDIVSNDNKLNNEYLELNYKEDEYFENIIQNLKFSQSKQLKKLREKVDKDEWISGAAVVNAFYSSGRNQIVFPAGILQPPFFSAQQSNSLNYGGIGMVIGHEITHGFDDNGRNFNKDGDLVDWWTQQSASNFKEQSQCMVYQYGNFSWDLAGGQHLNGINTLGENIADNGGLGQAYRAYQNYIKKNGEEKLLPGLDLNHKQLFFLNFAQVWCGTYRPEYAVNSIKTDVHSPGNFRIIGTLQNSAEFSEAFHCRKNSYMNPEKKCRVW
# log scale: pIC50 equals minus log10 of the concentration in mol/L

# annotated cases, reported pIC50 shown
- O=C(O)C(COc1ccccc1)C[C@@H](Cc1ccc(-c2ccccc2)cc1)C(=O)NCc1nn[nH]n1 (some centres undefined): 7.72
- O=C(O)CC[C@@H](Cc1ccc(-c2ccccc2)cc1)C(=O)Nc1nc(CC(=O)O)cs1: 6.91
- O=C(O)CNC(=O)[C@H](Cc1ccc(-c2ccccc2)cc1)C[C@H](COc1ccccc1)C(=O)O: 8.23

Proceed to the following item.
Q: Need pIC50 of CC(C[C@@H](Cc1ccc(-c2ccccc2)cc1)C(=O)Nc1nc(CC(=O)O)cs1)C(=O)O (some centres undefined) , thanks.
Ans: 7.24
